- experiment-summary: A CellTox Green Cytotoxicity Assay to monitor cytotoxicity in HEK293 cells - 32 hour (AID 1224881); note: nearly all actives have a fitted effect of over 40% in size; note: potency is the fitted concentration of half-maximal effect
- conditions: CellTox Green fluorescence; series mostly up to 76.8 µM
Records with an inconclusive call do not appear. Calls of active or inactive are those of the source. Calls come from the whole dose curve; as a rule, active = well fitted activation curve with a large enough effect in the repeat runs; inconclusive = weak or mixed curves; inactive = flat fitted curve, though single readings scatter.
experimental-readout: Potency

>>> print(df.to_string())
                                    compound  experimental_readout  observed_measurement
 0                         Oc1cc(Cl)cc(Cl)c1               Potency      49.5 µM (active)
 1                         CCOC(=O)Cc1ccccc1               Potency              inactive
 2  COC(=O)C(C)N(C(=O)c1ccco1)c1c(C)cccc1C (centres undefined)               Potency              inactive
 3                            ClSC(Cl)(Cl)Cl               Potency              inactive
 4  CCC(C)c1cccc(C(C)CC)c1O (centres undefined)               Potency      30.9 µM (active)
 5                  c1ccc2nc(N3CCNCC3)ccc2c1               Potency              inactive
 6                                   CC(C)Br               Potency              inactive
 7                     Brc1cccc(-c2ccccc2)c1               Potency      49.3 µM (active)
 8       COc1ccc2[nH]cc(CCN(C(C)C)C(C)C)c2c1               Potency              inactive
 9  CC1(C)[C@H](/C=C2\CCSC2=O)[C@@H]1C(=O)OCc1coc(Cc2ccccc2)c1               Potency              inactive
10            COP(=S)(OC)Oc1nc(Cl)c(Cl)cc1Cl               Potency              inactive
11                    Nc1ccc(N=Nc2ccccc2)cc1               Potency              inactive
12                        Nc1nc(N)c(N)c(N)n1               Potency      49.2 µM (active)
13  COP(=S)(NC(C)C)Oc1ccc(C)cc1[N+](=O)[O-] (centres undefined)               Potency              inactive

###

- experiment-summary: A CellTox Green Cytotoxicity Assay to monitor cytotoxicity in HEK293 cells - 8 hour (AID 1224884); note: nearly all actives have a fitted effect of over 35% in size
- conditions: CellTox Green fluorescence; series mostly up to 76.8 µM
- From the text: National Center for Advancing Translational Sciences [NCATS] NIH Chemical Genomics Center [NCGC] U.S. Environmental Protection Agency [EPA] National Institutes of Environmental Health Sciences [NIEHS] National Toxicology Program [NTP] Cell-based models are critical for drug discovery. […] Viable cells produce no appreciable increases in fluorescence. Therefore, the fluorescence signal produced by the binding interaction with dead cell DNA is proportional to cytotoxicity. […]
Inconclusive results are not listed. Calls of active or inactive are those of the source. Calls follow the shape of the dose curve; as a rule, active = well fitted activation curve with a large enough effect in the repeat runs; inconclusive = weak or mixed curves; inactive = flat fitted curve, though single readings scatter.
Outcomes: true (1) = active, false (0) = inactive

>>> df
                                    molecule        cat
 0  CC(=O)C(Cl)C(=O)N(C)C (stereo unspecified)  false (0)
 1                       O=[N+]([O-])C(Br)Br  false (0)
 2  CC(Cc1ccc(O)cc1)NCC(O)c1cc(O)cc(O)c1 (stereo unspecified)  false (0)
 3                        Cc1ccc(C)c2ccccc12  false (0)
 4  [F][Sn]([c]1ccccc1)([c]1ccccc1)[c]1ccccc1   true (1)
 5  C[C@]12Cc3cn[nH]c3C[C@@H]1CC[C@@H]1[C@@H]2CC[C@@]2(C)[C@H]1CC[C@]2(C)O  false (0)
 6  ClC1=C(Cl)[C@]2(Cl)[C@@H]3[C@H]4C[C@H]([C@@H]5O[C@H]45)[C@@H]3[C@@]1(Cl)C2(Cl)Cl  false (0)
 7                             CCN(CC)C(=S)S  false (0)
 8  Oc1ccc2[nH]cc(CCCCN3CC=C(c4ccccc4)CC3)c2c1  false (0)
 9                  c1ccc2nc(N3CCNCC3)ccc2c1  false (0)
10  O=C(NC(=O)c1c(F)cccc1F)Nc1ccc(Oc2ccc(C(F)(F)F)cc2Cl)cc1F  false (0)
11             CCC(C)Br (stereo unspecified)  false (0)
12  C=C(C)C(=O)[O][Sn]([CH2]CCC)([CH2]CCC)[CH2]CCC   true (1)
13               Nc1c(Cl)c(Cl)c(Cl)c(Cl)c1Cl  false (0)
14  CCCCC(CC)COC(=O)OOC(C)(C)C (stereo unspecified)  false (0)
15  CCNS(=O)(=O)C(F)(F)C(F)(F)C(F)(F)C(F)(F)C(F)(F)C(F)(F)C(F)(F)C(F)(F)F  false (0)
16                         CCCCN(CCCC)C(=S)S  false (0)
17  C#CCC1=C(C)C(OC(=O)C2C(C=C(C)C)C2(C)C)CC1=O (stereo unspecified)  false (0)
18               c1csc(-c2ccc(-c3cccs3)s2)c1  false (0)
19               CNC(=O)/C=C(\C)OP(=O)(OC)OC  false (0)
20  O=[N+]([O-])c1cccc2cccc([N+](=O)[O-])c12  false (0)
21  CCC[CH2][Sn]([CH2]CCC)([CH2]CCC)[CH2]CCC   true (1)
22                           S=C=NCCc1ccccc1  false (0)
23                                 C=CC(=C)C  false (0)
24  CC(=O)[O][Pb]([c]1ccccc1)([c]1ccccc1)[c]1ccccc1   true (1)
25  Cc1cc2c3c(c1)C(c1ccccc1)=N[C@@H](NC(=O)c1ccncc1)C(=O)N3CC2  false (0)
26  NC1CCC(CC2CCC(N)CC2)CC1 (stereo unspecified)  false (0)
27                     O=C(CCCCl)c1ccc(F)cc1  false (0)
28  CCOC(=O)CCN(SN(C)C(=O)Oc1cccc2c1OC(C)(C)C2)C(C)C  false (0)
29                        [Cl][Hg][c]1ccccc1  false (0)
30  O=C(N[C@@H]1N=C(c2ccccc2F)c2cccc3c2N(CC3)C1=O)c1cc2ccccc2[nH]1   true (1)
31  CC(Cc1ccccc1)N(C)Cc1ccco1 (stereo unspecified)  false (0)
32  CCC[CH2][Sn]([CH2]CCC)([CH2]CCC)[O][Sn]([CH2]CCC)([CH2]CCC)[CH2]CCC   true (1)
33     Clc1cc(Cl)c(-c2cc(Cl)c(Cl)cc2Cl)cc1Cl  false (0)
34                  [Cl-].[Cl-].[Cl-].[Yb+3]  false (0)
35                   [O-][Cl+3]([O-])([O-])O  false (0)
36  CC(C)=CC1C(C(=O)OC(C#N)c2cccc(Oc3ccccc3)c2)C1(C)C (stereo unspecified)  false (0)
37  CSC(=O)c1c(C(F)F)nc(C(F)(F)F)c(C(=O)SC)c1CC(C)C  false (0)
38  CC(C)NCC(O)c1ccccc1Cl (stereo unspecified)  false (0)
39  CCN(CC)C(=O)N[C@@H]1C=C2c3cccc4[nH]cc(c34)C[C@@H]2N(C)C1  false (0)
40                                 CCCCCON=O  false (0)
41              CC(=O)[O-].CC(=O)[O-].[Co+2]  false (0)
42                             O=P(Cl)(Cl)Cl  false (0)
43         N#Cc1c[nH]cc1-c1cccc2c1OC(F)(F)O2  false (0)
44  CC(C)=CCN1CC[C@@]2(C)c3cc(O)ccc3C[C@@H]1[C@@H]2C  false (0)
45               Cc1cc(C2CC2)nc(Nc2ccccc2)n1  false (0)
46                                  CCCCON=O  false (0)
47  ClC1=C(Cl)[C@]2(Cl)[C@H]3[C@H]([C@@H]4C=C[C@H]3C4)[C@@]1(Cl)C2(Cl)Cl   true (1)
48                           Nc1cc(Cl)ccc1Cl  false (0)
49               Cc1cnc2c(C(=O)O)c(Cl)ccc2c1  false (0)
50  CC(Cc1ccc2c(c1)OCO2)NO (stereo unspecified)  false (0)
